# Tested on: Neuronal acetylcholine receptor; alpha3/beta4 (Rattus norvegicus, UniProt P04757+P12392)
# Sequence (P04757 whole entry): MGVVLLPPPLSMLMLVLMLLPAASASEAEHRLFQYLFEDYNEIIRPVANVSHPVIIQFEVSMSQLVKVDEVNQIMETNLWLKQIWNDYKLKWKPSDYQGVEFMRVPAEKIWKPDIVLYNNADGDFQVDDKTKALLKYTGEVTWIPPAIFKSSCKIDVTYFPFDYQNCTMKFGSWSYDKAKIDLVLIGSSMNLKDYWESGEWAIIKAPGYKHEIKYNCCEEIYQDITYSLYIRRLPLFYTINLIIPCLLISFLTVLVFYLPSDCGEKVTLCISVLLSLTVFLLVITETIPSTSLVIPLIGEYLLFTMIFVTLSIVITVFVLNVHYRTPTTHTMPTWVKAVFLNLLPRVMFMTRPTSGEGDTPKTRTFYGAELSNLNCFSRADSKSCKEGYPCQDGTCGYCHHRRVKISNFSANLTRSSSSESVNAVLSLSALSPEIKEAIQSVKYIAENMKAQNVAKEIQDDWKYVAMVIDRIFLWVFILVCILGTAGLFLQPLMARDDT
# Sequence (P12392 whole entry): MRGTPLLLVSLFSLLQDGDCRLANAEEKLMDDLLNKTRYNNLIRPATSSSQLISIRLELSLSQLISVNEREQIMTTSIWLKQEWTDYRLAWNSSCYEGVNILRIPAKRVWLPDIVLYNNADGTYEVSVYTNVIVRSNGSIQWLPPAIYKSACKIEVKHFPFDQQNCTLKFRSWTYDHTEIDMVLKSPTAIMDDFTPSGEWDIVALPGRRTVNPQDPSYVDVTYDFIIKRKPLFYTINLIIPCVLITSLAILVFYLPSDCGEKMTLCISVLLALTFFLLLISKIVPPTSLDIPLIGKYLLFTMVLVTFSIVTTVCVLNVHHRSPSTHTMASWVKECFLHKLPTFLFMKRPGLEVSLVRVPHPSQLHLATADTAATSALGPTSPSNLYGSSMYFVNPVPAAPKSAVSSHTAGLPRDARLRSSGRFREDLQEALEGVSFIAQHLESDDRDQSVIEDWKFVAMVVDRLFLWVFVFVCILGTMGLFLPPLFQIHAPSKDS
# Run description: Displacement of [3H]epibatidine from rat alpha-3-beta-4 nACHR expressed in human HEK293 cells at 10 uM
# Format: cell-based
Please provide measured Ki for the entries that follow.
Answers are plain numbers, in µM.

Hey, quick one: what's Ki for each of these?
1. O=c1ccccn1CC1CCCN(Cc2ccccc2)C1 (stereo not given)
2. CN1CCCC(Cn2ccccc2=O)C1 (stereo not given)
3. O=c1ccccn1CC1CCNCC1

A:
[83, 160, 750]

Hey, quick one: what's Ki for each of these?
1. O=c1ccccn1CC1CCCNC1 (stereo not given)
2. O=c1ccccn1CC1CCN(Cc2ccccc2)CC1

A:
535
620

====

# Tested on: Neuronal acetylcholine receptor; alpha4/beta4 (Rattus norvegicus, UniProt P09483+P12392)
# Sequence (P09483 whole entry): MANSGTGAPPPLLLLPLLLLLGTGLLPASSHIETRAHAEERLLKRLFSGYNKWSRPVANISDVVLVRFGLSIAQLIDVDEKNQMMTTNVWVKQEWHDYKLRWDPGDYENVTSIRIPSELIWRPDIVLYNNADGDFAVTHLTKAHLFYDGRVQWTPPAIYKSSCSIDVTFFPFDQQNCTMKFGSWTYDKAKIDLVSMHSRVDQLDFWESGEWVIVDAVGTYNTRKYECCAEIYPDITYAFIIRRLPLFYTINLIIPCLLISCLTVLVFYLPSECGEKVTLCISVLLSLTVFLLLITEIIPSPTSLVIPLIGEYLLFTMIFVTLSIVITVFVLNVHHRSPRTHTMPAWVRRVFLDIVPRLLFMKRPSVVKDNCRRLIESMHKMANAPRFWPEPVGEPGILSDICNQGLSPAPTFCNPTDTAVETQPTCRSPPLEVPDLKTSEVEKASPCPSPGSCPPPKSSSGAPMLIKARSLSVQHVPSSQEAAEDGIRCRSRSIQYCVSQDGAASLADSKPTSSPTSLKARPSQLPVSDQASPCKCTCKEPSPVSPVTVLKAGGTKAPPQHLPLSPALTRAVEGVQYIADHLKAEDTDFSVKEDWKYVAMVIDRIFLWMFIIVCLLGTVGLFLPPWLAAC
# Sequence (P12392 whole entry): as the sequence (P12392 whole entry) above
# Run description: Displacement of [3H]epibatidine from rat alpha-4-beta-4 nACHR expressed in human HEK293 cells
# Type: cell-based
Metric: pKi
Numbers only, as −log10 of the molar value.

Q: Supply recorded pKi for O=c1cccc2n1C[C@@H]1CNC[C@H]2C1 [CYTISINICLINE] here.
A: 8.68

====

# Tested on: Neuronal acetylcholine receptor; alpha3/beta4 (Rattus norvegicus, UniProt P04757+P12392)
# Run description: Displacement of [3H]epibatidine from rat alpha3beta4 nACHR expressed in human HEK293 cells
# Format: cell-based
Metric: pKi
Give bare numbers, as −log10 of the molar value.

Q: Supply recorded pKi for O=c1cccc2n1C[C@@H]1CNC[C@H]2C1 here.
A: 6.66

====

# Tested on: Neuronal acetylcholine receptor; alpha2/beta2 (Rattus norvegicus, UniProt P12389+P12390)
# Sequence (P12389 whole entry): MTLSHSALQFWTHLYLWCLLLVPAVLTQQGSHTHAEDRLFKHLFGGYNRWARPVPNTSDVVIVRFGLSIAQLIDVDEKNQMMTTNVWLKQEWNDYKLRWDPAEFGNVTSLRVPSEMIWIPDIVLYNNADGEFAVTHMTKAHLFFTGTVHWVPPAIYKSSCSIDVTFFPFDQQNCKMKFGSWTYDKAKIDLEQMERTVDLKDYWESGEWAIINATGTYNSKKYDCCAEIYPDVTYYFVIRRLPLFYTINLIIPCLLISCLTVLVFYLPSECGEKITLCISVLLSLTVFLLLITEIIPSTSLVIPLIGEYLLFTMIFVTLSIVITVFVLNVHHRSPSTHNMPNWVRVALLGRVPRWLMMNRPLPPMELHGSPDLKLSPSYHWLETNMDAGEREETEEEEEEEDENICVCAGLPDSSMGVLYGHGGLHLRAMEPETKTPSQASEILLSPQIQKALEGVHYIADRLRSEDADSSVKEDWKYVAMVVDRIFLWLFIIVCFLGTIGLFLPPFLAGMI
# Sequence (P12390 whole entry): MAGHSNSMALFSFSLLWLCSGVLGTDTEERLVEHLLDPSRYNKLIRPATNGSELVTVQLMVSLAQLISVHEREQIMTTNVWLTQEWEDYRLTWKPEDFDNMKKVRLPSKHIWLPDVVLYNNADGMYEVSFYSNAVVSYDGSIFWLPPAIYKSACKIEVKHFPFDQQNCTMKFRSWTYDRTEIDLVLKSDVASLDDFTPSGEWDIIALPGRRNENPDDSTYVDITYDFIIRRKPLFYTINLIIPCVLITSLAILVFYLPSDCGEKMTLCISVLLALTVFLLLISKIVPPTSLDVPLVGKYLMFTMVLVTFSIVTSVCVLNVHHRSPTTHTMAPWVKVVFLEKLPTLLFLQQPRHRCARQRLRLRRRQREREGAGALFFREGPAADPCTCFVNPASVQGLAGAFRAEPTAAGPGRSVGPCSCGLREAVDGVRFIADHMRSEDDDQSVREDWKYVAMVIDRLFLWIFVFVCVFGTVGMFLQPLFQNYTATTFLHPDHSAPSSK
# Run description: Displacement of [3H]epibatidine from rat alpha2beta2 nACHR expressed in human HEK293 cells at 10 uM
# Format: cell-based
Please provide measured pKi for the entries that follow.
Answers are plain numbers, as −log10 of the molar value.

Previously resolved entries follow.
CN1CCCC(Cn2ccccc2=O)C1 (centres undefined) : 4.72
O=c1ccccn1CC1CCCNC1 (centres undefined) : 5.33
O=c1ccccn1CC1CCN(Cc2ccccc2)CC1 : 4.59

// next item, pKi requested
Q: Supply recorded pKi for O=c1ccccn1CC1CCCN(Cc2ccccc2)C1 (centres undefined) here.
A: 4.00

====

# Tested on: Neuronal acetylcholine receptor; alpha2/beta4 (Rattus norvegicus, UniProt P12389+P12392)
# Sequence (P12389 whole entry): as the sequence (P12389 whole entry) above
# Sequence (P12392 whole entry): as the sequence (P12392 whole entry) above
# Run description: Displacement of [3H]epibatidine from rat alpha-2-beta-4 nACHR expressed in human HEK293 cells
# Type: cell-based
Metric: pKi
Answers are plain numbers, as −log10 of the molar value.

Q: Supply recorded pKi for O=c1cccc2n1C[C@@H]1CNC[C@H]2C1 [CYTISINICLINE] here.
A: 8.27

====

# Tested on: Neuronal acetylcholine receptor; alpha3/beta2 (Rattus norvegicus, UniProt P04757+P12390)
# Sequence (P04757 whole entry): as the sequence (P04757 whole entry) above
# Sequence (P12390 whole entry): as the sequence (P12390 whole entry) above
# Run description: Displacement of [3H]epibatidine from rat alpha-3-beta-2 nACHR expressed in human HEK293 cells at 10 uM
Please provide measured pKi for the entries that follow.
Numbers only, as −log10 of the molar value.

O=c1ccccn1CC1CCCN(Cc2ccccc2)C1 (stereo not given) : 5.37
O=c1ccccn1CC1CCNCC1 : 4.92
O=c1ccccn1CC1CCN(Cc2ccccc2)CC1 : 5.14
CN1CCCC(Cn2ccccc2=O)C1 (stereo not given) : 5.22

Q: Supply recorded pKi for O=c1ccccn1CC1CCCNC1 (stereo not given) here.
A: 4.73
